Source: the supplement of paper PMC11451515

# System: P12-Ichikawa
# protocol description: AUC of viability dose-response curve (% viability x log10 dose units); higher = less sensitive
# experimental setup: HPLM + 10% dialyzed FBS; 48 h
value kind: AUC of viability dose-response curve

COc1cc2nc(N(C)CCCNC(=O)C3CCCO3)nc(N)c2cc1OC (centres undefined) : 416
COC1CCC(C(=O)c2ccc3nc4c(cc3c2)CCCO4)CC1 (centres undefined) : 458

Please report AUC of viability dose-response curve for every entry that follows.
1. Cn1cc(CNCC2CCN(c3ncc(C(=O)NO)cn3)CC2)c2ccccc21
2. CC1=NN(c2ccc(C)c(C)c2)C(=O)/C1=N/Nc1cccc(-c2cccc(C(=O)O)c2)c1O
3. CC(C)n1nc(-c2cc3cc(O)ccc3[nH]2)c2c(N)ncnc21

[262, 448, 360]

* * *

# Test system: NOMO1
# protocol description: cell viability relative to DMSO control; higher = less cytotoxic
# experimental setup: RPMI 5 mM glucose + 10% dialyzed FBS; 48 h; 15.4 µM
value kind: cell viability (%)
Give bare numbers, in %.

Below: 2 compounds and their reported cell viability.
CCCCCOC(=O)NC\1=N\C(=O)N(\C=C1F)[C@@H]2O[C@H](C)[C@@H](O)[C@H]2O : 73.8
CC(C)[C@@H](N(CCCN)C(=O)C1=CC=C(C)C=C1)C/2=N/C3=CC(=CC=C3C(=O)N2CC4=CC=CC=C4)Cl : 16.3

Please report cell viability for every entry that follows.
1. CC\1=C/C=C\C=[N]1[Pt](N)(Cl)Cl
2. Cc1ccc(NC(=O)c2ccc(CN3CCN(C)CC3)cc2)cc1Nc1nc(-c2cccnc2)cs1
3. [NH2][Pt]1([NH2])[O]CC(=O)[O]1
4. OC1=C(O)C2=C(\C=C/C(=O)O2)C=C1
5. Cc1c(CCOc2ccc(C(=O)O)cc2)c2cc(Cl)ccc2n1C(c1ccccc1)c1ccccc1
6. C/C=C(/C)C(=O)O[C@H]1C(C)=C2[C@H]([C@@H]1OC(=O)CCCCCCC)[C@@](C)(OC(C)=O)C[C@H](OC(=O)CCC)[C@@]1(O)[C@H]2OC(=O)[C@@]1(C)O

109
78.8
77.8
110
101
5.66

Please report cell viability for every entry that follows.
1. OC[C@H]1O[C@@H](O[C@@H]2[C@@H](CO)O[C@](O)(CO)[C@H]2O)[C@H](O)[C@@H](O)[C@H]1O
2. CC(NC1=CC=CC=C1)C\2=C\C(=C/N3C(=O)\C=C(/N=C23)N4CCOCC4)C (configuration not stated)
3. Cc1nc(NC(=O)N2CCC[C@H]2C(N)=O)sc1-c1ccnc(C(C)(C)C(F)(F)F)c1
4. CO[C@H]1/C=C/O[C@@]2(C)Oc3c(C)c(O)c4c(O)c(c5c(nc6cc(C)ccn65)c4c3C2=O)NC(=O)/C(C)=C\C=C\[C@H](C)[C@H](O)[C@@H](C)[C@@H](O)[C@@H](C)[C@H](OC(C)=O)[C@@H]1C
5. COC1=NC(=NC(=C1N\C2=N\CCN2)Cl)C
6. N=C(CCSCc1csc(N=C(N)N)n1)N[S+](N)(=O)[O-]
7. CCc1cncnc1N1CCN(Cc2nc3cc(C(F)(F)F)ccc3[nH]2)CC1
8. CN(C)c1ccc(O)c2c1C[C@H]1C[C@H]3[C@H](N(C)C)C(O)=C(C(N)=O)C(=O)[C@@]3(O)C(O)=C1C2=O

1. 68.1
2. 96.7
3. 48.2
4. 82.3
5. 89.5
6. 97
7. 75.8
8. 98.9

Can you share its cell viability? I mean this compound: COC(=O)Nc1nc2cc(C(=O)c3cccs3)ccc2[nH]1
40.5
